# studySystem: CDK2/Cyclin E (Homo sapiens)
# protocolSummary: CDK2/Cyclin E biochemical phosphorylation assay (Caliper mobility shift)
# assayConditions: apparent IC50; 1.0 mM ATP or ATP Km; 1.25 nM enzyme; 25° C.; read-out: CDK2/cyclin E1 IC50
pIC50: −log10 of the molar value.
reportedEndpoint: pIC50

Record excerpt, results attached:
Request: What does the data say about its pIC50? Entry: N#C[C@H]1C[C@@H]1Cn1ncc2ncc(Nc3cc(OC(F)F)[nH]n3)nc21 (single isomer, unassigned)
Result: ≥ 8.00

Request: Entry FC(F)Oc1cc(Nc2cnc3cnn([C@H](C(F)F)C4CCOCC4)c3n2)n[nH]1 (single isomer, unassigned) has what pIC50?
Result: 7.52 to 7.70

***
Request: Looking for the measured pIC50 of FC(F)Oc1cc(Nc2cnc3cnn(Cc4ccno4)c3n2)n[nH]1 , can you help?
Result: 7.70 to 8.00

Request: I would be grateful if you could share the reported pIC50 for C[C@@H](CCO)n1ncc2ncc(Nc3cc(OC(F)F)[nH]n3)nc21 (single isomer, unassigned) [Example 206] .
Result: < 7.00

Request: Given the entry FC(F)Oc1cc(Nc2cnc3cnn(C[C@@H]4CC4(F)F)c3n2)n[nH]1 (single isomer, unassigned) [Example 163] , report its measured pIC50.
Result: ≥ 8.00

Request: I would be grateful if you could share the reported pIC50 for CC(C)(C1CCOCC1)n1ncc2ncc(Nc3cc(OC(F)F)[nH]n3)nc21 .
Result: 7.52 to 7.70

Request: Tell me the measured pIC50 of C[C@H](c1cc(F)ccn1)n1ncc2ncc(Nc3cc(OC(F)F)[nH]n3)nc21 (single isomer, unassigned) , please.
Result: 7.70 to 8.00

###

Some molecules, each annotated with its measured IC50.
# studySystem: CDK2/Cyclin E (Homo sapiens, UniProt P24941)
# protocolSummary: CDK2/Cyclin E biochemical phosphorylation assay (Caliper mobility shift)
# assayConditions: apparent IC50; 1.0 mM ATP or ATP Km; 1.25 nM enzyme; 25° C.; read-out: CDK2/cyclin E1 IC50

Completed entries (count: 5):
Request: Using the record for COc1cc(Nc2cnc3cnn([C@@H](C)C4CC4)c3n2)n[nH]1 , report its IC50.
Result: 10 to 20 nM

Request: Any idea what its IC50 is? The molecule is C[C@@H](c1cccnn1)n1ncc2ncc(Nc3cc(OC(F)F)[nH]n3)nc21 (single isomer, unassigned)
Result: ≤ 10 nM

Request: # IC50 lookup, item C[C@@H](CCO)n1ncc2ncc(Nc3cc(OC(F)F)[nH]n3)nc21 (single isomer, unassigned) [Example 205]
Result: 30 to 100 nM

Request: Any idea what IC50 was measured for O[C@H]1CC[C@@H](n2ncc3ncc(Nc4cc(OC(F)F)[nH]n4)nc32)C1 (single isomer, unassigned) [Example 207] ?
Result: 10 to 20 nM

Request: Which IC50 is reported for this molecule? FC(F)Oc1cc(Nc2cnc3cnn(C4CCC(F)(F)CC4)c3n2)n[nH]1
Result: 10 to 20 nM

Next:
Request: IC50 for N#C[C@H]1C[C@H](Cn2ncc3ncc(Nc4cc(OC(F)F)[nH]n4)nc32)C1 (single isomer, unassigned) [Example 191] ?
Result: ≤ 10 nM

Request: Which IC50 reading was recorded for the molecule COc1cc(Nc2cnc3cnn(C[C@H]4CCOC4)c3n2)n[nH]1 ?
Result: ≤ 10 nM

Request: What value of IC50 has been recorded for this entry: FC(F)Oc1cc(Nc2cnc3cnn(CC45CCC(CC4)OC5)c3n2)n[nH]1
Result: ≤ 10 nM

###

# studySystem: CDK1/Cyclin B1, GST-tag (Homo sapiens)
# Construct: GST
# protocolSummary: CDK1/Cyclin B1 biochemical phosphorylation assay (Caliper mobility shift)
# assayConditions: apparent IC50; 1.0 mM ATP or ATP Km; 1.5 nM enzyme; 25° C.
pIC50: −log10 of the molar value.
Recorded pIC50 for the following compounds

Known results for compounds:
Request: Could you tell me which pIC50 is on file for C[C@@H](c1ccc(F)cn1)n1ncc2ncc(Nc3cc(OC(F)F)[nH]n3)nc21 ?
Result: ≤ 6.30

Request: # query: pIC50 of entry FC(F)Oc1cc(Nc2cnc3cnn(CC45CC(C4)C5)c3n2)n[nH]1
Result: 6.30 to 7.00

Request: Consider the compound CC[C@@H]([C@H](C)O)n1ncc2ncc(Nc3cc(OC(F)F)[nH]n3)nc21 (single isomer, unassigned) and give its measured pIC50.
Result: ≤ 6.30

Okay, now this compound:
Request: Tell me the measured pIC50 of FC(F)Oc1cc(Nc2cnc3cnn(C[C@H]4C[C@@H]4F)c3n2)n[nH]1 (single isomer, unassigned) [Example 160] , please.
Result: ≤ 6.30

###

As shown below, each of these compounds has a reported pIC50 value.
# studySystem: CDK2/Cyclin E (Homo sapiens)
# protocolSummary: CDK2/Cyclin E biochemical phosphorylation assay (Caliper mobility shift)
# assayConditions: apparent IC50; 1.0 mM ATP or ATP Km; 1.25 nM enzyme; 25° C.; read-out: CDK2/cyclin E1 IC50
pIC50: −log10 of the molar value.

Reference set, count: 3
Request: Looking for the measured pIC50 of C[C@@H](c1ccc(F)cc1)n1ncc2ncc(Nc3cc(OC(F)F)[nH]n3)nc21 [Example 47] , can you help?
Result: ≥ 8.00

Request: Need pIC50, item FC(F)Oc1cc(Nc2cnc3cnn(Cc4cccnc4)c3n2)n[nH]1 [Example 35]
Result: ≥ 8.00

Request: If you can, please state the reported pIC50 value of COc1cc(Nc2cnc3cnn([C@@H](C)c4ccccn4)c3n2)n[nH]1 [Example 45] .
Result: ≥ 8.00

// below: pIC50 requested for another compound
Request: Entry C[C@@H](c1cncc(F)c1)n1ncc2ncc(Nc3cc(OC(F)F)[nH]n3)nc21 (single isomer, unassigned) [Example 154] : reported pIC50 = ?
Result: 7.52 to 7.70

###

# studySystem: CDK1/Cyclin B1, GST-tag (Homo sapiens, UniProt P06493)
# Construct: GST
# Sequence (P06493 whole entry): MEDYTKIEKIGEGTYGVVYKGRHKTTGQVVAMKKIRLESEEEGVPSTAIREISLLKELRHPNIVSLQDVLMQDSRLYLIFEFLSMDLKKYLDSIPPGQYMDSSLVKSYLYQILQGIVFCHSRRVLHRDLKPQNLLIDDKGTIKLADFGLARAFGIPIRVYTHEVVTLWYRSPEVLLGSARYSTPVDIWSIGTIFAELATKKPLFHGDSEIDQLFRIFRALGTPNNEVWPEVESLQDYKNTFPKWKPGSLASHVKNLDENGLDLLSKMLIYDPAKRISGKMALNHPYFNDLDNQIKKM
# Sequence (P14635 whole entry partner): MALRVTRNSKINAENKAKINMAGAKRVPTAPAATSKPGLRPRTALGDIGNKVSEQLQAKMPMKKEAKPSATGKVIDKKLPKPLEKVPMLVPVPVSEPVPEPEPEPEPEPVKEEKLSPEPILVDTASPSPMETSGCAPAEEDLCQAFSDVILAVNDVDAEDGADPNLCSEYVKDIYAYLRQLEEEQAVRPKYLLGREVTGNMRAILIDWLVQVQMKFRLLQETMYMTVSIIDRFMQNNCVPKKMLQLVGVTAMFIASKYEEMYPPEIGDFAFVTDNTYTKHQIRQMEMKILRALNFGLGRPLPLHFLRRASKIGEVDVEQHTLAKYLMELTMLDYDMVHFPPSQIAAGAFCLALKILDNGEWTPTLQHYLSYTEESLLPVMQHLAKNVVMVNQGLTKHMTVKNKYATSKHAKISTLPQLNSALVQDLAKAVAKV
# protocolSummary: CDK1/Cyclin B1 biochemical phosphorylation assay (Caliper mobility shift)
# assayConditions: apparent IC50; 1.0 mM ATP or ATP Km; 1.5 nM enzyme; 25° C.
pIC50: −log10 of the molar value.
# pIC50 values compiled below

Request: Form field: reported pIC50 of FC(F)Oc1cc(Nc2cnc3cnn(C[C@@H]4CC4(F)F)c3n2)n[nH]1 (single isomer, unassigned) [Example 163]
Result: ≤ 6.30

###

# studySystem: CDK2/Cyclin E (Homo sapiens)
# protocolSummary: CDK2/Cyclin E biochemical phosphorylation assay (Caliper mobility shift)
# assayConditions: apparent IC50; 1.0 mM ATP or ATP Km; 1.25 nM enzyme; 25° C.; read-out: CDK2/cyclin E1 IC50
# Description: […]
reportedEndpoint: IC50

Request: Suppose we examine the molecule COc1cc(Nc2cnc3cnn(C[C@H]4CCCOC4)c3n2)n[nH]1 ; what IC50 value has been reported?
Result: 10 to 20 nM

Request: Could you share which IC50 value was measured for Fc1ccccc1Cn1ncc2ncc(Nc3cc(OC(F)F)[nH]n3)nc21 ?
Result: 20 to 30 nM

###

# studySystem: CDK2/Cyclin E (Homo sapiens, UniProt P24941)
# protocolSummary: CDK2/Cyclin E biochemical phosphorylation assay (Caliper mobility shift)
# assayConditions: apparent IC50; 1.0 mM ATP or ATP Km; 1.25 nM enzyme; 25° C.; read-out: CDK2/cyclin E1 IC50
We begin with a simple list: items and their reported IC50.

Known results for compounds:
Request: Given the entry C[C@@H](O)c1nn([C@@H](C)c2cccnc2)c2nc(Nc3cc(OC(F)F)[nH]n3)cnc12 (single isomer, unassigned) [Example 177] , report its measured IC50.
Result: ≤ 10 nM

Request: Dear colleague, I am looking for the recorded IC50 of the following compound: N#CCC1(Cn2ncc3ncc(Nc4cc(OC(F)F)[nH]n4)nc32)CC1
Result: 30 to 100 nM

Request: Reported IC50, compound C[C@]1(Cn2ncc3ncc(Nc4cc(OC(F)F)[nH]n4)nc32)CCOC1 (single isomer, unassigned) [Example 166] : ____
Result: ≤ 10 nM

Request: Can you share its IC50? I mean this compound: FC(F)Oc1cc(Nc2cnc3cnn(C[C@H]4CCOC4)c3n2)n[nH]1 (single isomer, unassigned) [Example 144]
Result: ≤ 10 nM

Request: # query: IC50 of entry COc1cc(Nc2cnc3cnn(CC4(C)COC4)c3n2)n[nH]1
Result: 20 to 30 nM

# evaluate next
Request: GET /values?readout=IC50&item= N#C[C@@]1(Cn2ncc3ncc(Nc4cc(OC(F)F)[nH]n4)nc32)CCOC1 (single isomer, unassigned) [Example 169]
Result: 20 to 30 nM

###

# studySystem: CDK1/Cyclin B1, GST-tag (Homo sapiens, UniProt P06493)
# Construct: GST
# protocolSummary: CDK1/Cyclin B1 biochemical phosphorylation assay (Caliper mobility shift)
# assayConditions: apparent IC50; 1.0 mM ATP or ATP Km; 1.5 nM enzyme; 25° C.
# Text: […]
reportedEndpoint: IC50

These solved cases illustrate the format of a correct answer.
Request: If you can, please state the reported IC50 value of FC(F)Oc1cc(Nc2cnc3cnn(Cc4cnccn4)c3n2)n[nH]1 [Example 223] .
Result: ≥ 500 nM

Request: Request the reported IC50 associated with C[C@@H]([C@@H]1COCCO1)n1ncc2ncc(Nc3cc(OC(F)F)[nH]n3)nc21 (single isomer, unassigned) [Example 213]
Result: ≥ 500 nM

Request: IC50 for C[C@@H]([C@@H]1COCCO1)n1ncc2ncc(Nc3cc(OC(F)F)[nH]n3)nc21 (single isomer, unassigned) [Example 212] ?
Result: ≥ 500 nM

---
Request: Would you mind telling me what IC50 value was observed for CC(C1CCCOC1)n1ncc2ncc(Nc3cc(OC(F)F)[nH]n3)nc21 (single isomer, unassigned) [Example 218] ?
Result: < 100 nM

Request: May I ask what IC50 has been recorded for FC(F)Oc1cc(Nc2cnc3cnn(Cc4nccs4)c3n2)n[nH]1 [Example 54] ?
Result: ≥ 500 nM

Request: What value of measured IC50 is listed for FC(F)Oc1cc(Nc2cnc3cnn(CC4CC5CCC(C4)O5)c3n2)n[nH]1 (stereo not shown) [Example 99] ?
Result: ≥ 500 nM

Request: Request the reported IC50 associated with N#C[C@H]1C[C@@H]1Cn1ncc2ncc(Nc3cc(OC(F)F)[nH]n3)nc21 (single isomer, unassigned) [Example 27]
Result: 100 to 500 nM

Request: Which IC50 value is on record for OC[C@@H](C1CCOCC1)n1ncc2ncc(Nc3cc(OC(F)F)[nH]n3)nc21 [Example 30] ?
Result: ≥ 500 nM
